Where do these numbers come from? They come from patent US6387885B1.

Ki by entry:
TESTED ON: LHRH rat pituitary receptor (Rattus norvegicus)
Construct: from tissue; host or cells: rat pituitary
Sequence (P30969 whole entry): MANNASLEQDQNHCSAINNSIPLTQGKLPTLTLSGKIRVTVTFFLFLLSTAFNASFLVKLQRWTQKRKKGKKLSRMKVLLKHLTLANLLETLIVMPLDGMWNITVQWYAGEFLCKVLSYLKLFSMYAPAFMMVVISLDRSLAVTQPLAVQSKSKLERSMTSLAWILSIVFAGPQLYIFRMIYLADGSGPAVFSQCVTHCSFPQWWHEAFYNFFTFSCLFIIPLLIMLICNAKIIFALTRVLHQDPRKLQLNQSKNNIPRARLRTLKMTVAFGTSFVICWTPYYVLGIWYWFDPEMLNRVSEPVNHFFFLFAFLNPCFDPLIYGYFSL
METHOD SUMMARY: LHRH rat pituitary receptor binding (in vitro)
CONDITION INFO: method of Haviv et al. J. Med. Chem. 32: 2340-2344 (1989), read-out: pKI (receptor binding affinity; negative logarithm of the equilibrium dissociation constant) (converted)
Give the value in nM but do not write nM after it.

// known answers, use as guide
COMPOUND: CC[C@H]1OC(=O)[C@H](C)[C@@H](O[C@H]2C[C@@](C)(OC)[C@@H](O)[C@H](C)O2)[C@H](C)[C@@H](O[C@@H]2O[C@H](C)C[C@H](N3C(C)CCC3C)[C@H]2O)[C@](C)(OC)C[C@@H](C)C(=O)[C@H](C)[C@H]2N(CCc3ccc(Cl)c(Cl)c3)C(=O)O[C@]12C (single isomer, unassigned) [Example 5]
TESTED ON: LHRH rat pituitary receptor (Rattus norvegicus)
Ki / nM: 1.23
//
COMPOUND: CCC1CCC(CC)N1[C@H]1C[C@@H](C)O[C@@H](O[C@@H]2[C@@H](C)[C@H](O[C@H]3C[C@@](C)(OC)[C@@H](O)[C@H](C)O3)[C@@H](C)C(=O)O[C@H](CC)[C@@]3(C)OC(=O)N(CCc4ccc(F)c(Cl)c4)[C@@H]3[C@@H](C)C(=O)[C@H](C)C[C@@]2(C)OC)[C@@H]1O (mixture of isomers) [Example 10]
TESTED ON: LHRH rat pituitary receptor (Rattus norvegicus)
Ki / nM: 0.676
//
COMPOUND: CC[C@H]1OC(=O)[C@H](C)[C@@H](O[C@H]2C[C@@](C)(OC)[C@@H](O)[C@H](C)O2)[C@H](C)[C@@H](O[C@@H]2O[C@H](C)C[C@H](N3C(C)CCCC3C)[C@H]2O)[C@](C)(OC)C[C@@H](C)C(=O)[C@H](C)[C@H]2N(CCc3ccc(F)c(Cl)c3)C(=O)O[C@]12C (single isomer, unassigned) [Example 8]
TESTED ON: LHRH rat pituitary receptor (Rattus norvegicus)
Ki / nM: 2.45

Then there is this compound:
For CC[C@H]1OC(=O)[C@H](C)[C@@H](O[C@H]2C[C@@](C)(OC)[C@@H](O)[C@H](C)O2)[C@H](C)[C@@H](O[C@@H]2O[C@H](C)C[C@H](N3C(C)CCC3C)[C@H]2O)[C@](C)(OC)C[C@@H](C)C(=O)[C@H](C)[C@H]2N(CCc3ccc(F)c(Cl)c3)C(=O)O[C@]12C (single isomer, unassigned) [Example 6] the compound record lists Ki as 0.759
